tested on: NCI-H522 lung; test: NCI tumour cell line growth inhibition, 48 h
outcomeMeasure: TGI

Some entries whose results are on file:
O=[N+]([O-])c1cccc(-c2oc(C=Nc3ccccc3)c([N+](=O)[O-])c2-c2cccc([N+](=O)[O-])c2)c1; > 100 µM
CCC1CN2CCc3c([nH]c4ccccc34)C2C[C@@H]1CC(=O)N(C)C (stereo not given in full); > 100 µM

// TGI lookup, compound = c1cc(CNCCN2CCNCC2)ccn1 , result: > 100 µM

----------
test system: HCT-15 colon; assay: NCI tumour cell line growth inhibition, 48 h
Catalogue of compounds with associated TGI

Some entries whose results are on file:
O=C/C=C/c1ccco1; > 100 µM
O=C(O)/C(=C/C=C/c1ccccc1)c1csc(-c2nc(/C(=C\C=C\c3ccccc3)C(=O)O)cs2)n1; > 100 µM
Oc1[nH]c2ccc(Cl)cc2c1/C=c1/ccc2c(c1)N=C(c1ccc(F)cc1)N=2; 4.47 µM
CC(C)(C)c1cc(C2=NN(c3ccccc3)C(c3ccccc3)C2)cc(C(C)(C)C)c1O (stereo not given); > 100 µM
CO/N=C(\C)COc1ccc2c(=O)c(-c3ccccc3)coc2c1; > 100 µM
Nc1nc(-c2ccccc2)nc2c1[n+]([O-])c1ccccc1[n+]2[O-]; > 100 µM
CSc1c(C#N)c(N)nc2c(N=Nc3ccc(Cl)cc3)c(N)nn12; 5.5 µM
Cc1c(COc2cc(OCc3cccc(C#N)c3)c(CN3C[C@H](O)C[C@@H]3C(=O)O)cc2Cl)cccc1-c1ccc2c(c1)OCCO2; 26.7 µM

// TGI lookup, compound = N#C/C(=C\NC(=S)c1ccncc1)c1nc2ccccc2s1 , result: > 100 µM

// TGI lookup, compound = N=c1c2c(-c3ccccc3)c[nH]c2ncn1N , result: > 100 µM
